- test-method-notes: NCI Yeast Anticancer Drug Screen. Data for the mlh1 rad18 strain (AID 175)
- run-parameters: S. cerevisiae mlh1 rad18 strain growth inhibition; at 50.0 µM; active compounds read high
This is part of a sample that, as a whole, favours compounds with a hit. Of some 79,000 tested, about 15% had one in any assay.
property-name: growth inhibition (%)
Kindly answer with a numeric value in %, unit omitted.

Field: example entries. Status: answers known.
molecule: O=C(O)c1ccc(Cl)c(Cl)c1
growth inhibition (%): 0.45

molecule: COC1OC2COC(c3ccccc3)OC2C2N=C(N)N([N+](=O)[O-])C12OS(C)(=O)=O (stereo not drawn)
growth inhibition (%): 3.75

molecule: CCC[C@H]1CCCCN1
growth inhibition (%): 3.6

Bench note: what growth inhibition did N#CC(C#N)=Cc1ccco1 show?
5.5

// query: CC(C)=C(OP1(=S)OCCN1C)C(C)(C)C(=O)N(C)C (stereo not drawn)
4.45

// query: COc1cccc(C2(C#N)CCN(C)CC2)c1
62.5

// query: NC(=O)c1c([N+](=O)[O-])ccc(N(CCCl)CCCl)c1[N+](=O)[O-]
-6.05

// query: Clc1cccc2c(N3CC3)cnnc12
-2.55

Where these numbers come from: PubChem BioAssay (NCI)
